targetDesc: C-terminal-binding protein 1 (Homo sapiens) (UniProt Q13363)
assayNotes: qHTS for Inhibitors of the Phosphatase Activity of Eya2: Carboxyl-terminal binding protein (CtBP) Counterscreen for Cherry-picked Compounds; also: nearly all actives have a fitted effect of over 65% in size; also: potency is read from the fitted curve at half-maximal effect
settings: purified protein-protein binding, AlphaScreen, 3 h; series mostly up to 46.1 µM
Out of some 1,300 compounds screened, about 420 (32%) were called active. Inconclusive results (about 32%) are left out. This is one part of the list.
readoutType: Potency

For orientation, consider the following solved cases.
Cc1ccc(-n2nnnc2C(=Cc2ccc(N(C)C)cc2)c2nnnn2-c2ccc(C)cc2)cc1 :: inactive
COc1ccc(C(=O)CC(=O)Nc2ccc([N+](=O)[O-])cc2)cc1 :: inactive
Cc1ccc(C2CC(c3ccc(Br)cc3)=NN2C(=O)CSC2=NN3CCCC(=O)N=C3S2)cc1 (stereo not drawn) :: inactive
O=C(O)c1ccccc1NC(c1ccccc1)c1ccc2cccnc2c1O (stereo not drawn) :: 1.9 µM (active)
Cc1cccn2c(=O)c3cc(S(=O)(=O)c4ccc(F)cc4)c(=N)n(Cc4ccco4)c3nc12 :: inactive

Value of measured Potency for the entry CN(C)C(CNC(=O)c1ccc2c(c1)S(=O)(=O)c1ccccc1C2=O)c1ccco1 (stereo not drawn) : inactive

Value of measured Potency for the entry COc1ccc(N2CCN(C(c3cccs3)C(C)NC(=O)c3ccc4c(c3)OCO4)CC2)cc1 (stereo not drawn) : inactive

Value of measured Potency for the entry CC(=O)NC(c1ccc(Cl)cc1)c1ccc2cccnc2c1O (stereo not drawn) : 1.9 µM (active)

Value of measured Potency for the entry Nc1[nH]nc2ncc3cc4ccccc4nc3c12 : 10.7 µM (active)

Value of measured Potency for the entry O=C(Oc1ccc(Cl)c2cccnc12)C12CC3CC(CC(C3)C1)C2 : inactive

Value of measured Potency for the entry O=C(Nc1nc2c(F)cc(F)cc2s1)c1ccc([N+](=O)[O-])o1 : inactive

====

targetDesc: C-terminal-binding protein 1 (Homo sapiens) (UniProt Q13363)
assayNotes: qHTS for Inhibitors of the Phosphatase Activity of Eya2: Carboxyl-terminal binding protein (CtBP) Counterscreen for Cherry-picked Compounds; also: nearly all actives have a fitted effect of over 65% in size
settings: purified protein-protein binding, AlphaScreen, 3 h; series mostly up to 46.1 µM
Hit rate of the full screen: of about 1,300 compounds, about 420 (32%) were called active. Another 32% or so got no clear call; they are omitted. The call rests on the fitted dose curve; in most records, active means well fitted inhibition curve with a large enough effect; inconclusive means small, poorly fitted or top-dose-only effect; inactive means no such curve, though single readings can be large or run the other way. The list shows a part of the results.
Output constraint: value belongs to active, inactive

As a guide, the following entries are already answered.
COc1cc(C(=S)N2CCOCC2)ccc1OC(=O)c1ccc([N+](=O)[O-])cc1[N+](=O)[O-] :: active
CCC(C)Nc1ccc(NC(C)CC)cc1 (centres undefined) :: active
CC(C(=O)c1ccc(Br)cc1)[n+]1cccc2ccccc21 (centres undefined) :: inactive
O=C(Nc1ccccc1)C(Cl)C(=O)c1ccccc1 (centres undefined) :: inactive
Cc1ccc(-c2csc(NC(=O)c3ccccc3F)c2C(=O)O)cc1 :: active

What did this assay record as the result for CCN(CC)C(=O)c1ccc(O)c(OC)c1 ?
inactive

What did this assay record as the result for O=[N+]([O-])c1ccc([N+](=O)[O-])c(Nc2ccc(N3CCOCC3)cc2)c1 ?
inactive

What did this assay record as the result for CN(Cc1ccccc1F)c1nc(-c2cccnc2)nc2ccccc12 ?
inactive

What did this assay record as the result for COc1ccc(-n2c(SCC(=O)Nc3cc(C(=O)O)ccc3C)nc3ccccc3c2=O)cc1Cl ?
active

====

targetDesc: C-terminal-binding protein 1 (Homo sapiens) (UniProt Q13363)
assayNotes: qHTS for Inhibitors of the Phosphatase Activity of Eya2: Carboxyl-terminal binding protein (CtBP) Counterscreen for Cherry-picked Compounds; also: nearly all actives have a fitted effect of over 65% in size
settings: purified protein-protein binding, AlphaScreen, 3 h; series mostly up to 46.1 µM
About 420 (32%) of roughly 1,300 compounds were called active. Not shown: some 32% with an inconclusive outcome. The call rests on the fitted dose curve; in most records, active means well fitted inhibition curve with a large enough effect; inconclusive means small, poorly fitted or top-dose-only effect; inactive means no such curve, though single readings can be large or run the other way. The list shows a part of the results.
Output constraint: value belongs to active, inactive

CC1=C(C(=O)OC(C)C)C(c2ccc(N(C)C)cc2)C2=C(CC(C)(C)CC2=O)N1 (stereo not given) :: inactive
CN(C)c1ccc(C(CNS(=O)(=O)c2ccc(F)c(F)c2)c2c[nH]c3ccccc23)cc1 (stereo not given) :: inactive
COc1cnc(-c2ccccn2)nc1Oc1ccc(C(C)(C)C)cc1 :: active
COc1cc(N)c(Cl)cc1C(=O)N[C@H]1CCN(CCCOc2ccc(F)cc2)C[C@H]1OC :: inactive
CCc1nc2ccc(C(=O)NCCOc3ccc(OC)cc3)cn2c1N(CCC(C)C)CCN(C)C :: inactive

What did this assay record as the result for Cc1ccc(Nc2nc(NCCO)nc3c2cnn3C)cc1Cl ?
active

What did this assay record as the result for COc1ccc(-c2noc(N3CCC(C(=O)Nc4cc(OC)ccc4OC)CC3)n2)cc1 ?
inactive

What did this assay record as the result for CCOC(=O)C(C)Sc1nc(-c2ccccn2)ncc1OC (stereo not given) ?
active

What did this assay record as the result for CC(C)Cc1nc2oc3c(=O)[nH]cnc3c2c2c1CCC2 ?
active

What did this assay record as the result for COc1ccccc1CNC(=O)CCCc1cn(C)c2ccccc12 ?
inactive

====

targetDesc: C-terminal-binding protein 1 (Homo sapiens)
assayNotes: qHTS for Inhibitors of the Phosphatase Activity of Eya2: Carboxyl-terminal binding protein (CtBP) Counterscreen for Cherry-picked Compounds; also: nearly all actives have a fitted effect of over 65% in size
settings: purified protein-protein binding, AlphaScreen, 3 h; series mostly up to 46.1 µM
Out of some 1,300 compounds screened, about 420 (32%) were called active. Not shown: some 32% with an inconclusive outcome. Calls follow the shape of the dose curve; as a rule, active = well fitted inhibition curve with a large enough effect; inconclusive = small, poorly fitted or top-dose-only effect; inactive = no such curve, though single readings can be large or run the other way. The list shows a part of the results.
Output constraint: value belongs to active, inactive

Cc1cc(C)n2nc(C(=O)NC3CCCc4ccccc43)nc2n1 (stereo not drawn) :: inactive
Cc1ccc(Nc2nnc(SCC(=O)c3c(N)n(C4CC4)c(=O)[nH]c3=O)s2)cc1C :: inactive
COc1ccccc1OCc1ccc(C(=O)Nc2cc(OC)c(OC)c(OC)c2)o1 :: inactive
Cn1c(-c2cc(Cl)ccc2O)nc2c1c(=O)[nH]c(=O)n2Cc1ccccc1 :: inactive
CC(=O)Nc1ccc(S(=O)(=O)Nc2ccc(N3CCCCC3)cc2)cc1 :: active
CC1CCCN(c2ccc3nc4ccccc4c(=O)n3n2)C1 (stereo not drawn) :: active
COc1cccc(C(=O)Nc2cccc(-c3ccc4nncn4n3)c2)c1OC :: active
CC(C)[C@H](NC(=O)c1ccccc1)C(=O)NC1CCCCCCC1 :: inactive
Cc1cc(C)n2nc(SCCOc3ccccc3F)nc2n1 :: active
CS(=O)(=O)n1nc(OC(=O)c2cccs2)cc1N :: inactive

What did this assay record as the result for CC(C)Nc1nnc(SCC(=O)Nc2ccc3c(c2)C(=O)c2ccccc2C3=O)s1 ?
active

What did this assay record as the result for O=c1[nH]c(SCCOc2ccccc2F)nc2ccccc12 ?
inactive

What did this assay record as the result for Nc1ccc(O)cc1 ?
active

What did this assay record as the result for CCOC(=O)CN1C(=O)/C(=C2\SC(=S)N(NC(=O)c3cccnc3)C2=O)c2ccccc21 ?
active

What did this assay record as the result for Nc1nc2nn(-c3ccccc3)nc2c(=O)[nH]1 ?
active

What did this assay record as the result for CC(C)(C)NC(=O)c1cccc(NC(=O)c2ccc(NC(=O)c3ccco3)cc2)c1 ?
inactive

What did this assay record as the result for Cc1cccc(Nc2nnc(SCC(=O)NCC3CCCO3)s2)c1 (stereo not drawn) ?
active

What did this assay record as the result for O=C(NCCCO)c1ccc2nc(-c3ccco3)c(-c3ccco3)nc2c1 ?
active

====

targetDesc: C-terminal-binding protein 1 (Homo sapiens) (UniProt Q13363)
assayNotes: qHTS for Inhibitors of the Phosphatase Activity of Eya2: Carboxyl-terminal binding protein (CtBP) Counterscreen for Cherry-picked Compounds; also: nearly all actives have a fitted effect of over 65% in size
settings: purified protein-protein binding, AlphaScreen, 3 h; series mostly up to 46.1 µM
About 420 (32%) of roughly 1,300 compounds were called active. Roughly 32% stayed inconclusive and do not appear here. Calls follow the shape of the dose curve; as a rule, active = well fitted inhibition curve with a large enough effect; inconclusive = small, poorly fitted or top-dose-only effect; inactive = no such curve, though single readings can be large or run the other way. This is one part of the list.
Output constraint: value belongs to active, inactive

O=C(CSc1ccc(-c2ccccn2)nn1)Nc1cccc(F)c1 :: inactive
COc1cc(NC(=O)CSc2ccc(-c3ccccn3)nn2)cc(OC)c1 :: active
O=C(O)CSCc1nc2cccnc2n1C1CCCCC1 :: inactive
CN1C=C/C(=C\c2cc[n+](C)c3ccccc23)c2ccccc21 :: active

Now look at this entry.
What did this assay record as the result for COc1ccccc1CNC(=O)c1ccc2c(=O)n(CCCN3CCCC3=O)c(=S)[nH]c2c1 ?
inactive

====

targetDesc: C-terminal-binding protein 1 (Homo sapiens) (UniProt Q13363)
assayNotes: qHTS for Inhibitors of the Phosphatase Activity of Eya2: Carboxyl-terminal binding protein (CtBP) Counterscreen for Cherry-picked Compounds; also: nearly all actives have a fitted effect of over 65% in size
settings: purified protein-protein binding, AlphaScreen, 3 h; series mostly up to 46.1 µM
Screen size: about 1,300 compounds; about 420 (32%) were called active. About 32% were inconclusive and are not listed. The call rests on the fitted dose curve; in most records, active means well fitted inhibition curve with a large enough effect; inconclusive means small, poorly fitted or top-dose-only effect; inactive means no such curve, though single readings can be large or run the other way. Some of the results follow.
Output constraint: value belongs to t (active), f (inactive)

As a guide, the following entries are already answered.
CCOC(=O)c1sc(NC(=O)CSc2nc(O)c(Cc3ccccc3)c(=O)[nH]2)nc1C :: t
Cc1ccccc1Nc1c(-c2ccccn2)nc2ccccn12 :: t
Cc1ccc(Nc2c(-c3ccccn3)nc3ccc(C)cn23)cc1 :: t
CSc1nc(NCCOCCO)c2sc3nc(-c4ccco4)c4c(c3c2n1)CCC4 :: t
COc1ccc(OC)c(NC(=O)CSc2nc(-c3ccccc3)cc(=O)[nH]2)c1 :: f

Now look at this entry.
What did this assay record as the result for COc1cc(/C=C2/C=Cc3ccccc32)ccc1N(C)C ?
t

The reported measurements were obtained from PubChem BioAssay AID720541.
